Assay: Transport of PF across MDCK-MDR1 cell monolayers (BBB in vitro model), LC-MS/MS
Format: in vitro ADME, canine
Conditions: dog, MDCK-MDR1, pH 7.4, PF 400 μg/mL, MDCK-MDR1 monolayers, mean ± SD (n = 3)
outcome.measure: Papp A→B at 150 min, 400 μg/mL (×10⁻⁶ cm/s)
Entry rule: numbers only, all in ×10⁻⁶ cm/s.

Ask: State the recorded Papp A→B at 150 min, 400 μg/mL for this entry: C[C@@]12C[C@@]3(O)O[C@@H](O1)[C@]1(COC(=O)c4ccccc4)[C@H]3C[C@@]12O[C@@H]1O[C@H](CO)[C@@H](O)[C@H](O)[C@H]1O
Result: 0.587

###

Assay: Transport of PF across MDCK-MDR1 cell monolayers (BBB in vitro model), LC-MS/MS
Assay type: in vitro ADME, canine
Details: dog, MDCK-MDR1, pH 7.4, PF 800 μg/mL, MDCK-MDR1 monolayers, mean ± SD (n = 3)
outcome.measure: Papp A→B at 150 min, 800 μg/mL (×10⁻⁶ cm/s)
Entry rule: numbers only, all in ×10⁻⁶ cm/s.

Ask: State the recorded Papp A→B at 150 min, 800 μg/mL for this entry: C[C@@]12C[C@@]3(O)O[C@@H](O1)[C@]1(COC(=O)c4ccccc4)[C@H]3C[C@@]12O[C@@H]1O[C@H](CO)[C@@H](O)[C@H](O)[C@H]1O
Result: 0.705

###

Assay: Transport of PF across MDCK-MDR1 cell monolayers (BBB in vitro model), LC-MS/MS
Assay type: in vitro ADME, canine
Details: dog, pH 7.4; PF 400 μg/mL, MDCK-MDR1 monolayers, mean ± SD (n = 3)
outcome.measure: Papp B→A at 150 min, 400 μg/mL (×10⁻⁶ cm/s)
Entry rule: numbers only, all in ×10⁻⁶ cm/s.

Ask: State the recorded Papp B→A at 150 min, 400 μg/mL for this entry: C[C@@]12C[C@@]3(O)O[C@@H](O1)[C@]1(COC(=O)c4ccccc4)[C@H]3C[C@@]12O[C@@H]1O[C@H](CO)[C@@H](O)[C@H](O)[C@H]1O [PF, paeoniflorin]
Result: 1.3

###

System: P-gp
Assay: Transport of PF across MDCK-MDR1 cell monolayers (BBB in vitro model), LC-MS/MS
Assay type: in vitro ADME, canine
Details: dog, MDCK-MDR1, pH 7.4, 400 μg/mL PF + verapamil (P-gp inhibitor), mean ± SD (n = 3)
outcome.measure: Papp A→B at 150 min, 400 μg/mL (×10⁻⁶ cm/s)
Entry rule: numbers only, all in ×10⁻⁶ cm/s.

Ask: State the recorded Papp A→B at 150 min, 400 μg/mL for this entry: C[C@@]12C[C@@]3(O)O[C@@H](O1)[C@]1(COC(=O)c4ccccc4)[C@H]3C[C@@]12O[C@@H]1O[C@H](CO)[C@@H](O)[C@H](O)[C@H]1O
Result: 0.707

###

Tested on: P-gp (MDR1)
Test: Transport of PF across MDCK-MDR1 cell monolayers (BBB in vitro model), LC-MS/MS
Type: in vitro ADME, canine
Conditions: dog, MDCK-MDR1, pH 7.4
outcome.measure: efflux ratio at 150 min, 100 μg/mL
# print the numeric value only

Ask: State the recorded efflux ratio at 150 min, 100 μg/mL for this entry: C[C@@]12C[C@@]3(O)O[C@@H](O1)[C@]1(COC(=O)c4ccccc4)[C@H]3C[C@@]12O[C@@H]1O[C@H](CO)[C@@H](O)[C@H](O)[C@H]1O
Result: 2.22

###

Experiment: Transport of PF across MDCK-MDR1 cell monolayers (BBB in vitro model), LC-MS/MS
Type: in vitro ADME, canine
Conditions: dog, MDCK-MDR1, pH 7.4, 400 μg/mL PF + 2.5 mmol/L EDTA-Na2, mean ± SD (n = 3)
outcome.measure: Papp A→B at 150 min, 400 μg/mL (×10⁻⁶ cm/s)
Entry rule: numbers only, all in ×10⁻⁶ cm/s.

Ask: State the recorded Papp A→B at 150 min, 400 μg/mL for this entry: C[C@@]12C[C@@]3(O)O[C@@H](O1)[C@]1(COC(=O)c4ccccc4)[C@H]3C[C@@]12O[C@@H]1O[C@H](CO)[C@@H](O)[C@H](O)[C@H]1O [PF, paeoniflorin]
Result: 2.74

###

Test system: P-gp (MDR1)
Test: Transport of PF across MDCK-MDR1 cell monolayers (BBB in vitro model), LC-MS/MS
Format: in vitro ADME, canine
Conditions: dog, MDCK-MDR1, pH 7.4
outcome.measure: efflux ratio at 150 min, 200 μg/mL
# print the numeric value only

Ask: State the recorded efflux ratio at 150 min, 200 μg/mL for this entry: C[C@@]12C[C@@]3(O)O[C@@H](O1)[C@]1(COC(=O)c4ccccc4)[C@H]3C[C@@]12O[C@@H]1O[C@H](CO)[C@@H](O)[C@H](O)[C@H]1O
Result: 2.13

###

Assay: Transport of PF across MDCK-MDR1 cell monolayers (BBB in vitro model), LC-MS/MS
Type: in vitro ADME, canine
Conditions: dog, pH 7.4; PF 600 μg/mL, MDCK-MDR1 monolayers, mean ± SD (n = 3)
outcome.measure: Papp B→A at 150 min, 600 μg/mL (×10⁻⁶ cm/s)
Entry rule: numbers only, all in ×10⁻⁶ cm/s.

Ask: State the recorded Papp B→A at 150 min, 600 μg/mL for this entry: C[C@@]12C[C@@]3(O)O[C@@H](O1)[C@]1(COC(=O)c4ccccc4)[C@H]3C[C@@]12O[C@@H]1O[C@H](CO)[C@@H](O)[C@H](O)[C@H]1O [PF, paeoniflorin]
Result: 1.44

###

Experiment: Transport of PF across MDCK-MDR1 cell monolayers (BBB in vitro model), LC-MS/MS
Type: in vitro ADME, canine
Conditions: dog, MDCK-MDR1, pH 7.4, PF 200 μg/mL, MDCK-MDR1 monolayers, mean ± SD (n = 3)
outcome.measure: Papp A→B at 150 min, 200 μg/mL (×10⁻⁶ cm/s)
Entry rule: numbers only, all in ×10⁻⁶ cm/s.

Ask: State the recorded Papp A→B at 150 min, 200 μg/mL for this entry: C[C@@]12C[C@@]3(O)O[C@@H](O1)[C@]1(COC(=O)c4ccccc4)[C@H]3C[C@@]12O[C@@H]1O[C@H](CO)[C@@H](O)[C@H](O)[C@H]1O
Result: 0.691

###

Assay: Transport of PF across MDCK-MDR1 cell monolayers (BBB in vitro model), LC-MS/MS
Assay type: in vitro ADME, canine
Settings: dog, pH 7.4; PF 200 μg/mL, MDCK-MDR1 monolayers, mean ± SD (n = 3)
outcome.measure: Papp B→A at 150 min, 200 μg/mL (×10⁻⁶ cm/s)
Entry rule: numbers only, all in ×10⁻⁶ cm/s.

Ask: State the recorded Papp B→A at 150 min, 200 μg/mL for this entry: C[C@@]12C[C@@]3(O)O[C@@H](O1)[C@]1(COC(=O)c4ccccc4)[C@H]3C[C@@]12O[C@@H]1O[C@H](CO)[C@@H](O)[C@H](O)[C@H]1O [PF, paeoniflorin]
Result: 1.48

###

Assay: Transport of PF across MDCK-MDR1 cell monolayers (BBB in vitro model), LC-MS/MS
Type: in vitro ADME, canine
Conditions: dog, pH 7.4; PF 800 μg/mL, MDCK-MDR1 monolayers, mean ± SD (n = 3)
outcome.measure: Papp B→A at 150 min, 800 μg/mL
Give your result as the value with the unit written after it.

Ask: State the recorded Papp B→A at 150 min, 800 μg/mL for this entry: C[C@@]12C[C@@]3(O)O[C@@H](O1)[C@]1(COC(=O)c4ccccc4)[C@H]3C[C@@]12O[C@@H]1O[C@H](CO)[C@@H](O)[C@H](O)[C@H]1O
Result: 1.42 ×10⁻⁶ cm/s
